- Tested on: Echinochloa oryzoides (Ard.) Fritsch.
- measurement.protocol: Preemergence weed control under flooded paddy conditions, ECHORC (Watergrass (Calif.))
- Type: in vivo
- conditions: 0.0620 kg/ha; preemergence weeds, flooded paddy; herbicidal effect rating 0-9, three to four weeks after treatment
endpoint.label: ECHORC
Answers are plain numbers.

Look over these answered cases.
* Cn1c(C(F)(F)F)cc(=O)n(-c2ccc3snc(C(C#N)=CC4CC4)c3c2)c1=O | 6.0
* COC(=O)CN(C(=O)c1nsc2ccc(-n3c(=O)cc(C(F)(F)F)n(C)c3=O)cc12)S(=O)(=O)Cc1ccccc1 | 0.0
* CN(C(=O)COc1ccccc1-c1nsc2ccc(-n3c(=O)cc(C(F)(F)F)n(C)c3=O)cc12)S(C)(=O)=O | 8.0
* CCOC(=O)c1nsc2cc(F)c(-n3c(=O)cc(C(F)(F)F)n(C)c3=O)cc12 | 9.0

Quick request: ECHORC for each listed item, please.
1. Cn1c(C(F)(F)F)cc(=O)n(-c2ccc3snc(C(SCCO)SCCO)c3c2)c1=O
2. COCCOC(=O)c1nsc2ccc(-n3c(=O)cc(C(F)(F)F)n(C)c3=O)cc12
3. CCCCS(=O)(=O)OC(C)c1nsc2ccc(-n3c(=O)cc(C(F)(F)F)n(C)c3=O)cc12 (stereo not shown)

## Output
0.0
0.0
0.0

* * *

- Test system: Oryza sativa, (L.) Tebonnet
- measurement.protocol: Rice tolerance to post-transplant applications under flooded paddy conditions (Example 187), ORYSAT (Rice, Tebonnet); note: meaning of each grade not given here
- conditions: Rate 0.2500 kg/ha, rated 3-4 weeks after treatment
Everything with herbicidal effect rating ORYSAT lower than 4 is rule not met; everything else, including exactly 4, is rule met.

Take a look at these entries with their results.
- COCC(C)OC(=O)C(C)(C)Oc1ccc(C)cc1-c1nsc2ccc(-n3c(=O)cc(C(F)(F)F)n(C)c3=O)cc12 (centres unmarked): rule not met
- Cc1ccc(OCC(=O)OCCC2OCC(C)(C)CO2)c(-c2nsc3ccc(-n4c(=O)cc(C(F)(F)F)n(C)c4=O)cc23)c1: rule met
- CCCS(=O)(=O)NC(=O)COc1ccccc1-c1nsc2ccc(-n3c(=O)cc(C(F)(F)F)n(C)c3=O)cc12: rule met
- C=CS(=O)(=O)NC(=O)COc1ccc(C)cc1-c1nsc2ccc(-n3c(=O)cc(C(F)(F)F)n(C)c3=O)cc12: rule met
- Cc1ccc(OCC(N)=O)c(-c2nsc3ccc(-n4c(=O)cc(C(F)(F)F)n(C)c4=O)cc23)c1: rule not met

## Input Entry CCCS(=O)(=O)NC(=O)COc1ccc(C)cc1-c1nsc2ccc(-n3c(=O)cc(C(F)(F)F)n(C)c3=O)cc12 : is its herbicidal effect rating ORYSAT no less than 4?
## Output rule met

## Input Param item: COCCCOCCCOC(=O)COc1ccc(C)cc1-c1nsc2ccc(-n3c(=O)cc(C(F)(F)F)n(C)c3=O)cc12 [Example 523]
## Output rule met

## Input Param item: CCS(=O)(=O)NC(=O)COc1ccc(C)cc1-c1nsc2ccc(-n3c(=O)cc(C(F)(F)F)n(C)c3=O)cc12
## Output rule met

## Input Param item: CC(Oc1ccccc1-c1nsc2ccc(-n3c(=O)cc(C(F)(F)F)n(C)c3=O)cc12)C(=O)N(C)C (centres unmarked)
## Output rule not met

## Input Param item: Cc1ccc(OCC(=O)c2ccc(OC(F)F)cc2)c(-c2nsc3ccc(-n4c(=O)cc(C(F)(F)F)n(C)c4=O)cc23)c1
## Output rule not met

## Input Param item: Cn1c(C(F)(F)F)cc(=O)n(-c2ccc3snc(-c4ccccc4OCC(N)=O)c3c2)c1=O [Example 563]
## Output rule met

## Input Param item: C=CC(CCCC)OC(=O)COc1ccc(C)cc1-c1nsc2ccc(-n3c(=O)cc(C(F)(F)F)n(C)c3=O)cc12 (centres unmarked)
## Output rule not met
